test system: Staphylococcus aureus; assay: Antibacterial activity against Staphylococcus aureus ATCC 25923 after 18 to 24 hrs by broth microdilution method; format: functional
metric: MIC (µg/mL)
Give bare numbers, in µg/mL.

molecule: N=C(N)NCCCCCCCCCCNC(=N)N.O=C(O)C(F)(F)F [SYNTHALIN A]
MIC (µg/mL): 64

molecule: Cc1ccc(-c2ccc(COc3ccc(CCNC(=N)N)cc3)cn2)nc1.O=C(O)C(F)(F)F
MIC (µg/mL): 8

molecule: Cc1cccc(-c2cccc(COc3ccc(CCNC(=N)N)cc3)n2)n1.O=C(O)C(F)(F)F
MIC (µg/mL): 16

molecule: N=C(N)NCCc1cc2c(O)c(c1)Cc1cc(CCNC(=N)N)cc(c1O)Cc1cc(CCNC(=N)N)cc(c1O)Cc1cc(CCNC(=N)N)cc(c1O)C2.O=C(O)C(F)(F)F
MIC (µg/mL): 8

molecule: Cc1csc(-c2nc(COc3ccc(CCNC(=N)N)cc3)cs2)n1.O=C(O)C(F)(F)F
MIC (µg/mL): 16

Hi, could you look up MIC for each item in my list?
1. Cc1ccc(-c2ccc(COc3c4cc(CCNC(=N)N)cc3Cc3cc(CCNC(=N)N)cc(c3O)Cc3cc(CCNC(=N)N)cc(c3OCc3ccc(-c5ccc(C)cn5)nc3)Cc3cc(CCNC(=N)N)cc(c3O)C4)cn2)nc1.O=C(O)C(F)(F)F
2. N=C(N)c1ccc(OCCCCCCOc2ccc(C(=N)N)cc2)cc1.O=C(O)C(F)(F)F

# output
1: 8; 2: 4

###

test: Selectivity index, ratio of IC50 for human MRC5 cells after 24 hrs to MIC for Enterococcus faecalis ATCC 29212; format: functional
metric: Selectivity Index
Numbers only.

In the examples that follow, each entry is paired with its recorded Selectivity Index.
molecule: Cc1cccc(-c2cccc(COc3c4cc(CCNC(=N)N)cc3Cc3cc(CCNC(=N)N)cc(c3O)Cc3cc(CCNC(=N)N)cc(c3OCc3cccc(-c5cccc(C)n5)n3)Cc3cc(CCNC(=N)N)cc(c3O)C4)n2)n1.O=C(O)C(F)(F)F
Selectivity Index: 1
//
molecule: Cc1cccc(-c2cccc(COc3ccc(CCNC(=N)N)cc3)n2)n1.O=C(O)C(F)(F)F
Selectivity Index: 0.5
//
molecule: Cc1csc(-c2nc(COc3c4cc(CCNC(=N)N)cc3Cc3cc(CCNC(=N)N)cc(c3O)Cc3cc(CCNC(=N)N)cc(c3OCc3csc(-c5nc(C)cs5)n3)Cc3cc(CCNC(=N)N)cc(c3O)C4)cs2)n1.O=C(O)C(F)(F)F
Selectivity Index: 2
//
molecule: N=C(N)NCCCCCCCCCCNC(=N)N.O=C(O)C(F)(F)F [SYNTHALIN A]
Selectivity Index: 0.5
//
molecule: N=C(N)c1ccc(OCCCCCCOc2ccc(C(=N)N)cc2)cc1.O=C(O)C(F)(F)F
Selectivity Index: 16

The record that follows has no Selectivity Index shown yet.
Selectivity Index reading for `Cc1csc(-c2nc(COc3ccc(CCNC(=N)N)cc3)cs2)n1.O=C(O)C(F)(F)F` : 1

###

tested on: Staphylococcus aureus; assay: Antibacterial activity against Staphylococcus aureus ATCC 25923 after 18 to 24 hrs by broth microdilution method; assay type: functional
metric: MIC (µg/mL)
Give bare numbers, in µg/mL.

A selection of reference data follows.
sample.smiles: N=C(N)NCCc1ccc(O)cc1.O=C(O)C(F)(F)F
result.units: µg/mL
MIC: 512
--
sample.smiles: Cc1csc(-c2nc(COc3c4cc(CCNC(=N)N)cc3Cc3cc(CCNC(=N)N)cc(c3O)Cc3cc(CCNC(=N)N)cc(c3OCc3csc(-c5nc(C)cs5)n3)Cc3cc(CCNC(=N)N)cc(c3O)C4)cs2)n1.O=C(O)C(F)(F)F
result.units: µg/mL
MIC: 8

Now look at this one.
Kindly note the recorded MIC for `Cc1cccc(-c2cccc(COc3c4cc(CCNC(=N)N)cc3Cc3cc(CCNC(=N)N)cc(c3O)Cc3cc(CCNC(=N)N)cc(c3OCc3cccc(-c5cccc(C)n5)n3)Cc3cc(CCNC(=N)N)cc(c3O)C4)n2)n1.O=C(O)C(F)(F)F` , which is 16

###

assay: Selectivity index, ratio of IC50 for human MRC5 cells after 24 hrs to MIC for Pseudomonas aeruginosa ATCC 27853; format: functional
metric: Selectivity Index
Give bare numbers.

molecule: Cc1csc(-c2nc(COc3ccc(CCNC(=N)N)cc3)cs2)n1.O=C(O)C(F)(F)F
Selectivity Index: 0.5

molecule: Cc1csc(-c2nc(COc3c4cc(CCNC(=N)N)cc3Cc3cc(CCNC(=N)N)cc(c3O)Cc3cc(CCNC(=N)N)cc(c3OCc3csc(-c5nc(C)cs5)n3)Cc3cc(CCNC(=N)N)cc(c3O)C4)cs2)n1.O=C(O)C(F)(F)F
Selectivity Index: 1

molecule: N=C(N)NCCCCCCCCCCNC(=N)N.O=C(O)C(F)(F)F [SYNTHALIN A]
Selectivity Index: 1

molecule: Cc1cccc(-c2cccc(COc3c4cc(CCNC(=N)N)cc3Cc3cc(CCNC(=N)N)cc(c3O)Cc3cc(CCNC(=N)N)cc(c3OCc3cccc(-c5cccc(C)n5)n3)Cc3cc(CCNC(=N)N)cc(c3O)C4)n2)n1.O=C(O)C(F)(F)F
Selectivity Index: 1

molecule: Cc1cccc(-c2cccc(COc3ccc(CCNC(=N)N)cc3)n2)n1.O=C(O)C(F)(F)F
Selectivity Index: 0.25

Selectivity Index recorded for this molecule, `N=C(N)c1ccc(OCCCCCCOc2ccc(C(=N)N)cc2)cc1.O=C(O)C(F)(F)F` , is 1

###

tested on: MRC5; experiment: Cytotoxicity against human MRC5 cells after 168 hrs; type: cell-based; details: MRC5, 168 h
Please provide measured IC50 for the entries that follow.
One number for each entry, in µg/mL.

For orientation, consider the following solved cases.
sample.smiles: Cc1cccc(-c2cccc(COc3c4cc(CCNC(=N)N)cc3Cc3cc(CCNC(=N)N)cc(c3O)Cc3cc(CCNC(=N)N)cc(c3OCc3cccc(-c5cccc(C)n5)n3)Cc3cc(CCNC(=N)N)cc(c3O)C4)n2)n1.O=C(O)C(F)(F)F
IC50 (µg/mL): 16
//
sample.smiles: Cc1csc(-c2nc(COc3ccc(CCNC(=N)N)cc3)cs2)n1.O=C(O)C(F)(F)F
IC50 (µg/mL): 8
//
sample.smiles: N=C(N)NCCc1ccc(O)cc1.O=C(O)C(F)(F)F
IC50 (µg/mL): 32

Then there is this compound:
IC50 recorded for this compound, `N=C(N)c1ccc(OCCCCCCOc2ccc(C(=N)N)cc2)cc1.O=C(O)C(F)(F)F` , is 4

###

tested on: MRC5; experiment: Cytotoxicity against human MRC5 cells after 168 hrs; type: cell-based; conditions: MRC5, 168 h
metric: IC50 (µg/mL)
One number for each entry, in µg/mL.

sample.smiles: Cc1cccc(-c2cccc(COc3ccc(CCNC(=N)N)cc3)n2)n1.O=C(O)C(F)(F)F
measured.number: 2

For every listed record, write down its IC50.
1. Cc1csc(-c2nc(COc3c4cc(CCNC(=N)N)cc3Cc3cc(CCNC(=N)N)cc(c3O)Cc3cc(CCNC(=N)N)cc(c3OCc3csc(-c5nc(C)cs5)n3)Cc3cc(CCNC(=N)N)cc(c3O)C4)cs2)n1.O=C(O)C(F)(F)F
2. N=C(N)NCCc1cc2c(O)c(c1)Cc1cc(CCNC(=N)N)cc(c1O)Cc1cc(CCNC(=N)N)cc(c1O)Cc1cc(CCNC(=N)N)cc(c1O)C2.O=C(O)C(F)(F)F

# output
[16, 128]

###

Hi there, I'd appreciate the recorded Selectivity Index for every entry that follows.
test: Selectivity index, ratio of IC50 for human MRC5 cells after 24 hrs to MIC for Enterococcus faecalis ATCC 29212; format: functional

sample.smiles: Cc1ccc(-c2ccc(COc3ccc(CCNC(=N)N)cc3)cn2)nc1.O=C(O)C(F)(F)F
result: >2

sample.smiles: N=C(N)NCCc1cc2c(O)c(c1)Cc1cc(CCNC(=N)N)cc(c1O)Cc1cc(CCNC(=N)N)cc(c1O)Cc1cc(CCNC(=N)N)cc(c1O)C2.O=C(O)C(F)(F)F
result: >8

Consider the record given below.
The compound listed as `Cc1ccc(-c2ccc(COc3c4cc(CCNC(=N)N)cc3Cc3cc(CCNC(=N)N)cc(c3O)Cc3cc(CCNC(=N)N)cc(c3OCc3ccc(-c5ccc(C)cn5)nc3)Cc3cc(CCNC(=N)N)cc(c3O)C4)cn2)nc1.O=C(O)C(F)(F)F` shows Selectivity Index equal to >16

###

assay: Selectivity index, ratio of IC50 for human MRC5 cells after 24 hrs to MIC for Pseudomonas aeruginosa ATCC 27853; type: functional
metric: Selectivity Index

Previously resolved entries follow.
sample.smiles: N=C(N)NCCc1cc2c(O)c(c1)Cc1cc(CCNC(=N)N)cc(c1O)Cc1cc(CCNC(=N)N)cc(c1O)Cc1cc(CCNC(=N)N)cc(c1O)C2.O=C(O)C(F)(F)F
Selectivity Index: >8

sample.smiles: Cc1ccc(-c2ccc(COc3ccc(CCNC(=N)N)cc3)cn2)nc1.O=C(O)C(F)(F)F
Selectivity Index: >1

From here, focus on the item given below.
Field Selectivity Index (entry `Cc1ccc(-c2ccc(COc3c4cc(CCNC(=N)N)cc3Cc3cc(CCNC(=N)N)cc(c3O)Cc3cc(CCNC(=N)N)cc(c3OCc3ccc(-c5ccc(C)cn5)nc3)Cc3cc(CCNC(=N)N)cc(c3O)C4)cn2)nc1.O=C(O)C(F)(F)F` ) reads >4
